procedure summary: chemical genetic growth profiling, strain panel (AID 1159580);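 further: tested at 20 µM; growth read once vehicle control cultures reached saturation at 30 °C; 1 = growth at the plate median or of vehicle wells; lower values mean less growth of the strain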
condition: S. cerevisiae deletion strains, growth OD, locus YJL187C, strain SWE1
Out of some 5,500 compounds screened, about 2,000 (36%) were called active. Not shown: some 18% with an inconclusive outcome. No stated cut-off is given here; in the data, active means normalized growth mostly below about 0.91 (no sharp cut-off); inconclusive means no clear call, values can overlap the other calls; inactive means mostly above about 0.92. The list shows a part of the results.
Hi there, use one of these labels in your reply, thanks! T for active, F for inactive

Task item: Name the outcome recorded for Oc1ccc2c(c1)OCC1(O)Cc3cc(O)c(O)cc3C21 (stereo not given) in the assay.
Reply: F

Task item: Name the outcome recorded for O=C(OC1Cc2c(O)cc(O)cc2OC1c1cc(=O)c(O)c2c(O)c(O)cc(C3Oc4cc(O)cc(O)c4CC3O)c2c1)c1cc(O)c(O)c(O)c1 (stereo not given) in the assay.
Reply: F

Task item: Name the outcome recorded for C[C@]12CCC3c4ccc(O)cc4CCC3C1CC[C@@H]2O (stereo not given in full) in the assay.
Reply: F

Task item: Name the outcome recorded for CC(C)[N+](C)(CCC(C(N)=O)(c1ccccc1)c1ccccc1)C(C)C in the assay.
Reply: F

Task item: Name the outcome recorded for CC1CC[C@@]2(OC1)O[C@H]1CC3C4CC[C@@H]5C[C@@H](O)CC[C@]5(C)C4CC[C@]3(C)[C@H]1[C@@H]2C (stereo not given in full) in the assay.
Reply: F

Task item: Name the outcome recorded for COC(=O)c1c(C)cc(OC)cc1O in the assay.
Reply: F

Task item: Name the outcome recorded for CCC(N)C(O)c1ccc(O)c(O)c1 (stereo not given) in the assay.
Reply: F

Task item: Name the outcome recorded for O=C(Cc1cccs1)NC1C(=O)N2C(C(=O)[O-])=C(C[n+]3ccccc3)CSC12 (stereo not given) in the assay.
Reply: F

---
Task item: Name the outcome recorded for NS(=O)(=O)c1cc(C2(O)NC(=O)c3ccccc32)ccc1Cl (stereo not given) in the assay.
Reply: F

Task item: Name the outcome recorded for COC(=O)c1c(C)cc(O)cc1O in the assay.
Reply: F

Task item: Name the outcome recorded for C[C@@H]1CC[C@@]2(OC1)OC1CC3C4CC=C5C[C@@H](O)CC[C@]5(C)C4CC[C@]3(C)C1[C@@H]2C (stereo not given in full) in the assay.
Reply: F

Task item: Name the outcome recorded for Cc1cc(OC(=O)c2c(C)cc(O)cc2O)cc(O)c1C(=O)O in the assay.
Reply: F

Task item: Name the outcome recorded for O=C(O[C@@H]1Cc2c(O)cc(O)cc2O[C@@H]1c1cc(O)c(=O)c2c(O)c(O)cc([C@H]3Oc4cc(O)cc(O)c4C[C@H]3OC(=O)c3cc(O)c(O)c(O)c3)c2c1)c1cc(O)c(O)c(O)c1 in the assay.
Reply: T

Task item: Name the outcome recorded for CC(C)N(CCC(C(N)=O)(c1ccccc1)c1ccccn1)C(C)C (stereo not given) in the assay.
Reply: T

Task item: Name the outcome recorded for CSc1cccc(NC(=S)N=CN(C)C)c1 in the assay.
Reply: F

Task item: Name the outcome recorded for CCOC(=O)c1c(C)cc(OC)cc1O in the assay.
Reply: F

Task item: Name the outcome recorded for COc1ccc(-c2oc3c(CC=C(C)C)c(O[C@@H]4O[C@H](CO)[C@@H](O)[C@H](O)[C@H]4O)cc(O)c3c(=O)c2O[C@@H]2O[C@@H](C)[C@H](O)[C@@H](O)[C@H]2O)cc1 in the assay.
Reply: F

Task item: Name the outcome recorded for COc1ccc2c(c1)CCC1C2CCC2(C)C1C[C@@H](O)C2O (stereo not given in full) in the assay.
Reply: F

Task item: Name the outcome recorded for CCOC(=O)c1c(C)cc(O)cc1O in the assay.
Reply: F

Task item: Name the outcome recorded for COc1ccc2c(c1)CCC1C2CC[C@@]2(C)C1CC[C@@H]2O (stereo not given in full) in the assay.
Reply: T

---

procedure summary: chemical genetic growth profiling, strain panel (AID 1159580)
condition: S. cerevisiae deletion strains, growth OD, locus YNL067W, strain RPL9B
Hit rate of the full screen: of about 5,500 compounds, about 2,000 (36%) were called active. About 18% were inconclusive and are not listed. Cut-off read from the data, not from the text of the source: active = normalized growth mostly below about 0.91 (no sharp cut-off); inconclusive = no clear call, values can overlap the other calls; inactive = mostly above about 0.92. This is one part of the list.
Hi there, use one of these labels in your reply, thanks! 1.0 for active, 0.0 for inactive

Recorded results for 2 molecules are shown here.
Task item: Name the outcome recorded for CCc1cc(C(N)=S)ccn1 in the assay.
Reply: 0.0

Task item: Name the outcome recorded for CCC(N)C(O)c1ccc(O)c(O)c1 (configuration not stated) in the assay.
Reply: 0.0

---
Task item: Name the outcome recorded for CC(C)c1c(O)ccc2c1CCC1[C@@](C)(C=O)CCC[C@]21C (some centres not stated) in the assay.
Reply: 1.0

Task item: Name the outcome recorded for NS(=O)(=O)c1cc(C2(O)NC(=O)c3ccccc32)ccc1Cl (configuration not stated) in the assay.
Reply: 0.0

Task item: Name the outcome recorded for CC(C)(O)[C@@H]1Cc2cc3ccc(=O)oc3cc2O1 in the assay.
Reply: 0.0

---

procedure summary: chemical genetic growth profiling, strain panel (AID 1159580);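 further: tested at 20 µM; growth read once vehicle control cultures reached saturation at 30 °C; 1 = growth at the plate median or of vehicle wells; lower values mean less growth of the strain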
condition: S. cerevisiae deletion strains, growth OD, locus YPL078C, strain atp4, hits give low values
Hit rate of the full screen: of about 5,500 compounds, about 2,000 (36%) were called active. About 18% were inconclusive and are not listed. Some of the results follow.
Consider the following compounds; for each one, report its normalized growth.
Numbers only.

Task item: Which normalized growth reading was recorded for the compound COc1cc(O)c2c(=O)c(O)c(-c3ccc(O)c(O)c3)oc2c1 ?
Reply: 0.796

Task item: Which normalized growth reading was recorded for the compound O=c1ccc2cc(OC3OC(CO)C(O)C(O)C3O)c(O)cc2o1 (centres undefined) ?
Reply: 0.935

Task item: Which normalized growth reading was recorded for the compound NC(=NCCC[C@H](N)C(=O)O)N[N+](=O)[O-] ?
Reply: 1.03

Task item: Which normalized growth reading was recorded for the compound C[C@]12CCC3c4ccc(O)cc4CCC3C1C[C@@H](O)[C@@H]2O (some centres undefined) ?
Reply: 1.05

Task item: Which normalized growth reading was recorded for the compound CC(=O)OCC1=C(C(=O)O)N2C(=O)[C@@H](NC(=O)Cc3cccs3)[C@H]2SC1 ?
Reply: 1.02

Lab note: each compound below needs its normalized growth filled in.
1. O=C(O)C1=C[C@@H](O)[C@@H](O)[C@H](O)C1
2. CC(=O)O[C@]1(C(C)=O)CCC2C3C=C(Cl)C4=CC(=O)[C@@H]5C[C@@H]5[C@]4(C)C3CC[C@@]21C (some centres undefined)
3. COc1ccc(-c2oc3c(CC=C(C)C)c(O[C@@H]4O[C@H](CO)[C@@H](O)[C@H](O)[C@H]4O)cc(O)c3c(=O)c2O[C@@H]2O[C@@H](C)[C@H](O)[C@@H](O)[C@H]2O)cc1
4. C=C(C)[C@H]1COc2cc3oc(=O)ccc3cc2O1

Reply:
[0.987, 1.01, 0.986, 0.755]

---

procedure summary: chemical genetic growth profiling, strain panel (AID 1159580);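 further: tested at 20 µM; growth read once vehicle control cultures reached saturation at 30 °C; 1 = growth at the plate median or of vehicle wells; lower values mean less growth of the strain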
condition: S. cerevisiae deletion strains, growth OD, locus YLR039C, strain RIC1
The campaign covered roughly 5,500 compounds. About 2,000 (36%) were called active. Inconclusive results (about 18%) are left out. Rule as the data show it: active = normalized growth mostly below about 0.91 (no sharp cut-off); inconclusive = no clear call, values can overlap the other calls; inactive = mostly above about 0.92. The list shows a part of the results.
Hi there, use one of these labels in your reply, thanks! active, inactive

Recorded results for 6 compounds are shown here.
Task item: Name the outcome recorded for O=C1NC(=O)/C(=C/c2ccc(OS(=O)(=O)c3ccc(Cl)cc3)cc2)N1 in the assay.
Reply: inactive

Task item: Name the outcome recorded for C[C@@H]1CC[C@@]2(OC1)OC1CC3C4CC=C5C[C@@H](O)CC[C@]5(C)C4CC[C@]3(C)C1[C@@H]2C (some centres undefined) in the assay.
Reply: inactive

Task item: Name the outcome recorded for Clc1ccc(C=C2c3ccccc3-c3ccccc32)cc1 in the assay.
Reply: inactive

Task item: Name the outcome recorded for COc1ccc2ccc(=O)oc2c1 in the assay.
Reply: inactive

Task item: Name the outcome recorded for CC1CC[C@@]2(OC1)O[C@H]1CC3C4CC[C@@H]5CC(=O)CC[C@]5(C)C4CC[C@]3(C)[C@H]1[C@@H]2C (some centres undefined) in the assay.
Reply: inactive

Task item: Name the outcome recorded for CNC(=O)Oc1cccc2c1OC(C)(C)O2 in the assay.
Reply: inactive

---
Task item: Name the outcome recorded for COc1cc2occc2c2oc(=O)ccc12 in the assay.
Reply: inactive

Task item: Name the outcome recorded for CC1CC[C@]2(NC1)O[C@H]1CC3C4CC[C@H]5C[C@@H](O)CC[C@]5(C)C4CC[C@]3(C)[C@H]1[C@@H]2C (some centres undefined) in the assay.
Reply: active

Task item: Name the outcome recorded for C[C@@H]1CC[C@@]2(NC1)O[C@H]1C[C@H]3C4CC=C5C[C@@H](O)CC[C@]5(C)C4CC[C@]3(C)C1[C@@H]2C (some centres undefined) in the assay.
Reply: active

---

procedure summary: chemical genetic growth profiling, strain panel (AID 1159580);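 further: tested at 20 µM; growth read once vehicle control cultures reached saturation at 30 °C; 1 = growth at the plate median or of vehicle wells; lower values mean less growth of the strain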
condition: S. cerevisiae deletion strains, growth OD, locus YKL068W, hits give low values
In all, about 5,500 compounds went through this assay and about 2,000 (36%) were called active. Roughly 18% stayed inconclusive and do not appear here. This is one part of the list.
assay readout: normalized growth

Example entries and their recorded answers appear below.
Task item: Which normalized growth reading was recorded for the compound COc1c2ccoc2cc2oc(=O)ccc12 ?
Reply: 0.973 (inactive)

Task item: Which normalized growth reading was recorded for the compound CCCCOc1cc(C(=O)NCCN(CC)CC)c2ccccc2n1 ?
Reply: 0.994 (inactive)

Task item: Which normalized growth reading was recorded for the compound COc1ccc(-c2cc(=O)c3c(O)cc(O[C@H]4O[C@H](CO[C@@H]5O[C@@H](C)[C@H](O)[C@@H](O)[C@H]5O)[C@@H](O)[C@H](O)[C@H]4O)cc3o2)cc1 ?
Reply: 1.01 (inactive)

Task item: Which normalized growth reading was recorded for the compound O=C(Cc1cccs1)NC1C(=O)N2C(C(=O)[O-])=C(C[n+]3ccccc3)CSC12 (stereo not given) ?
Reply: 1.01 (inactive)

Task item: Which normalized growth reading was recorded for the compound C[C@@H]1O[C@@H](OC[C@H]2OC(Oc3c(-c4ccc(OCCO)c(OCCO)c4)oc4cc(OCCO)cc(O)c4c3=O)[C@H](O)[C@@H](O)[C@@H]2O)[C@H](O)[C@H](O)[C@H]1O (stereo not given in full) ?
Reply: 0.973 (inactive)

Task item: Which normalized growth reading was recorded for the compound O=c1c(O)c(-c2cc(O)c(O)c(O)c2)oc2cc(O)cc(O)c12 ?
Reply: 1.01 (inactive)

Lab note: each compound below needs its normalized growth filled in.
1. COc1cc(O)c2c(=O)c(O)c(-c3ccc(O)c(O)c3)oc2c1
2. COc1cc2occc2c2oc(=O)ccc12
3. COc1cc(OC)c2ccc(=O)oc2c1

Reply:
["1 (inactive)", "1 (inactive)", "1.01 (inactive)"]

Task item: Which normalized growth reading was recorded for the compound COC(=O)C[C@H]1C(C)(C)C2(Cl)O[C@@]34CC2C(=O)[C@]1(C)C3CC[C@]1(C)C4=CC(=O)O[C@H]1c1ccoc1 (stereo not given in full) ?
Reply: 1.01 (inactive)
